assayed_target: Glycoprotein 42 (Epstein-Barr virus (strain AG876))
experiment_description: EBV glycoprotein 42 binding blockers – biochemical, uHTS, fluorescence polarization, primary screen (AID 1085)
setup_conditions: Fluorescence polarization binding assay, mP read-out; tested at 21.74 µM
Out of some 220,000 compounds screened, about 930 (0.42%) were called active. Cut-off read from the data, not from the text of the source: active = inhibition above about 50%; inactive = the rest. Many of the other results were omitted from the sample, so actives are more common in it than they were.
Classes used: TRUE (active), FALSE (inactive)

compound	assigned_class
CCOC(=O)CC1C(=O)NCCN1c1nc2c(C)cccn2c(=O)c1/C=C1\SC(=S)N(C(C)CC)C1=O (configuration not stated)	FALSE
CC1CCCN(S(=O)(=O)c2ccc(N(C(=O)c3cnccn3)C(C(=O)NC3CCCCC3)c3cccs3)cc2)C1 (configuration not stated)	FALSE
Cc1no[n+]([O-])c1COc1ccccc1/C=C1\NC(=S)NC1=O	FALSE
CC(=O)NC(NC(=S)Nc1c(C)n(C)n(-c2ccccc2)c1=O)C(Cl)(Cl)Cl (configuration not stated)	FALSE
CCOC(=O)N/N=C1\CC(C)S(=O)(=O)c2ccc(Cl)cc21 (configuration not stated)	FALSE
COC(=O)CCCC1=CC2=CC(=O)C(C)(OC(=O)c3cccs3)C(=O)C2=CN1c1cccc(C#N)c1 (configuration not stated)	TRUE
CCN(CC)P(=O)(Nc1ccc(SC(F)F)cc1)c1ccc(N(C)C)cc1NC(=O)c1ccco1 (configuration not stated)	FALSE
Oc1[nH]c2ccc(Br)cc2c1N=Nc1nn[nH]n1	FALSE
Cc1ccc(-c2nc(SCC(=O)Nc3ccccc3OC(F)F)c3c(C)c(C(=O)O)sc3n2)cc1	TRUE
O=S(=O)(c1cccc(C(F)(F)F)c1)N1CCN(c2cnccn2)CC1	FALSE
Cc1cccc(N=Nc2c(O)[nH]c3ccc(F)cc23)c1	TRUE
Cc1cs/c(=N\N=C\c2ccc(O)cc2)n1Cc1ccco1	FALSE
N#C/C(=C\c1ccccc1C(F)(F)F)C(=O)Nc1ccccc1F	FALSE
CCOc1ccc(/C=C(/NC(=O)c2ccccc2)C(=O)NCCC(=O)O)cc1	FALSE
N#C/C(=C\C1=C(N2CCOCC2)C(=C\c2ccccc2)/CC1)C(=O)Nc1ccccc1F	TRUE
Cn1c(=O)c(=O)n(C)c2cc(S(=O)(=O)NCCN3CCN(c4ccccc4F)CC3)ccc21	FALSE
Cc1ccc(C)c(SCc2nc3sc(C(=O)O)c(C)c3c(=O)[nH]2)c1	FALSE
COc1ccc(NC(=O)COc2ccc(C(=O)OCC(=O)N(C)C3CCS(=O)(=O)C3)cc2OC)cc1 (configuration not stated)	FALSE
COC(=O)Cn1nc(-c2ccccc2)c2cc(Cl)ccc21	FALSE
CCOC(=O)C1=C(c2ccccc2)N=C2SCC(=O)N2C1c1ccc(O)c(OC)c1 (configuration not stated)	FALSE
CCOc1cc(/C=C(\C#N)c2nc(-c3cccs3)c(NC(C)=O)s2)ccc1O	TRUE
O=C(N/N=C/c1ccc(Cl)cc1)c1nc2ccc([N+](=O)[O-])cc2c(=O)[nH]1	TRUE

Attribution: PubChem BioAssay AID1085
